test system: L1210 leukemia; test: Survival time of mice bearing the L1210 leukemia; type: in vivo, mouse (CDF-1 mice); settings: 50 mg/kg once daily for six days, L1210 mice
readout: Av. Change wt. %

INSERT INTO measurements (given_smiles, recorded_measurement) VALUES
  ('COc1ccc(S(=O)(=O)NN(C)S(=O)(=O)c2ccc(C)cc2)cc1', '+7.7%'),
  ('Cc1ccc(S(=O)(=O)N(C)NS(=O)(=O)c2ccccc2)cc1', '+2.0%'),
  ('CN(NS(=O)(=O)c1ccc(Cl)cc1)S(=O)(=O)c1ccc(Cl)cc1', '+4.1%');

Could you report Av. Change wt. % for every entry in the following list?
1. CN(NS(=O)(=O)c1ccccc1)S(=O)(=O)c1ccccc1
2. COc1ccc(S(=O)(=O)N(C)NS(=O)(=O)c2ccc(C)cc2)cc1
3. Cc1ccc(S(=O)(=O)N(C)NS(=O)(=O)Cc2ccccc2)cc1
4. Cc1ccc(S(=O)(=O)N(C)NS(=O)(=O)c2ccc(Cl)cc2)cc1
5. COc1ccc(S(=O)(=O)NN(C)S(=O)(=O)c2ccc(OC)cc2)cc1
6. Cc1ccc(S(=O)(=O)NN(C)S(=O)(=O)c2ccc(Cl)cc2)cc1

Result:
1: -4.8%; 2: +12.6%; 3: +10.8%; 4: +3.7%; 5: +10.9%; 6: +5.1%

Could you report Av. Change wt. % for every entry in the following list?
1. CN(NS(=O)(=O)c1ccc2ccccc2c1)S(=O)(=O)c1ccc2ccccc2c1
2. Cc1ccc(S(=O)(=O)NN(C)S(=O)(=O)c2ccc(C)cc2)cc1

Result:
+6.9%
+3.7%

* * *

Provide the reported Av. Change wt. % of each item.
test system: L1210 leukemia; test: Survival time of mice bearing the L1210 leukemia; assay type: in vivo, mouse (CDF-1 mice); settings: 150 mg/kg once daily for six days, L1210 mice
Answers are plain numbers, in %.

INSERT INTO results (given_smiles, readout, recorded_measurement) VALUES
  ('Cc1ccc(S(=O)(=O)N(C)NS(=O)(=O)Cc2ccccc2)cc1', 'Av. Change wt. %', -4.3),
  ('CN(NS(=O)(=O)c1ccc2ccccc2c1)S(=O)(=O)c1ccc2ccccc2c1', 'Av. Change wt. %', -3.3),
  ('CN(NS(=O)(=O)c1ccccc1)S(=O)(=O)c1ccccc1', 'Av. Change wt. %', -13.5),
  ('Cc1ccc(S(=O)(=O)NN(C)S(=O)(=O)c2ccc(Cl)cc2)cc1', 'Av. Change wt. %', -4.6);

Could you report Av. Change wt. % for every entry in the following list?
1. Cc1ccc(S(=O)(=O)N(C)NS(=O)(=O)c2ccccc2)cc1
2. COc1ccc(S(=O)(=O)NN(C)S(=O)(=O)c2ccc(OC)cc2)cc1

Result:
1. -2.7
2. -1.6

* * *

test system: B16 melanoma; assay: Survival time of mice bearing the B16 melanoma; type: in vivo, mouse (C57B1 mice); conditions: at optimum effective daily dose, B16 mice
readout: Av. Change in wt., %

Consider the worked cases shown below.
INSERT INTO measurements (given_smiles, measured_target, recorded_measurement) VALUES
  ('CN(NS(=O)(=O)c1ccc(Cl)cc1)S(=O)(=O)c1ccc(Cl)cc1', 'B16 melanoma', '+4.8%'),
  ('COc1ccc(S(=O)(=O)NN(C)S(=O)(=O)c2ccc(OC)cc2)cc1', 'B16 melanoma', '+2.4%');

Ask: Return reported Av. Change in wt., %; argument: `COc1ccc(S(=O)(=O)NN(C)S(=O)(=O)c2ccc(C)cc2)cc1`
Result: +9.1%

* * *

Provide the reported Av. Change in wt., % of each item.
test system: B16 melanoma; assay: Survival time of mice bearing the B16 melanoma; type: in vivo, mouse (C57B1 mice); conditions: at optimum effective daily dose, B16 mice

Consider the worked cases shown below.
INSERT INTO measurements (given_smiles, recorded_measurement) VALUES
  ('Cc1ccc(S(=O)(=O)N(C)NS(=O)(=O)c2ccc(Cl)cc2)cc1', '+2.9%'),
  ('CN(NS(=O)(=O)c1ccc2ccccc2c1)S(=O)(=O)c1ccc2ccccc2c1', '+4.6%');

# evaluate next
Ask: Form field - read-out: Av. Change in wt., %; system: B16 melanoma; submitted item: `Cc1ccc(S(=O)(=O)N(C)NS(=O)(=O)c2ccccc2)cc1`
Result: +8.5%

* * *

test system: L1210 leukemia; assay: Survival time of mice bearing the L1210 leukemia; type: in vivo, mouse (CDF-1 mice); conditions: 150 mg/kg once daily for six days, L1210 mice
readout: Av. Change wt. %

INSERT INTO measurements (molecule, recorded_measurement) VALUES
  ('Cc1ccc(S(=O)(=O)N(C)NS(=O)(=O)c2ccc(Cl)cc2)cc1 [Compound 3]', '+6.0%'),
  ('CN(NS(=O)(=O)c1ccc(Cl)cc1)S(=O)(=O)c1ccc(Cl)cc1 [Compound 10]', '+1.3%'),
  ('COc1ccc(S(=O)(=O)NN(C)S(=O)(=O)c2ccc(C)cc2)cc1 [Compound 2]', '+2.9%');

Ask: Return reported Av. Change wt. %; argument: COc1ccc(S(=O)(=O)N(C)NS(=O)(=O)c2ccc(C)cc2)cc1 [Compound 4]
Result: +9.8%
